- target-desc: MINK1 (human) (UniProt Q8N4C8)
- Sequence (Q8N4C8 whole entry, looked up): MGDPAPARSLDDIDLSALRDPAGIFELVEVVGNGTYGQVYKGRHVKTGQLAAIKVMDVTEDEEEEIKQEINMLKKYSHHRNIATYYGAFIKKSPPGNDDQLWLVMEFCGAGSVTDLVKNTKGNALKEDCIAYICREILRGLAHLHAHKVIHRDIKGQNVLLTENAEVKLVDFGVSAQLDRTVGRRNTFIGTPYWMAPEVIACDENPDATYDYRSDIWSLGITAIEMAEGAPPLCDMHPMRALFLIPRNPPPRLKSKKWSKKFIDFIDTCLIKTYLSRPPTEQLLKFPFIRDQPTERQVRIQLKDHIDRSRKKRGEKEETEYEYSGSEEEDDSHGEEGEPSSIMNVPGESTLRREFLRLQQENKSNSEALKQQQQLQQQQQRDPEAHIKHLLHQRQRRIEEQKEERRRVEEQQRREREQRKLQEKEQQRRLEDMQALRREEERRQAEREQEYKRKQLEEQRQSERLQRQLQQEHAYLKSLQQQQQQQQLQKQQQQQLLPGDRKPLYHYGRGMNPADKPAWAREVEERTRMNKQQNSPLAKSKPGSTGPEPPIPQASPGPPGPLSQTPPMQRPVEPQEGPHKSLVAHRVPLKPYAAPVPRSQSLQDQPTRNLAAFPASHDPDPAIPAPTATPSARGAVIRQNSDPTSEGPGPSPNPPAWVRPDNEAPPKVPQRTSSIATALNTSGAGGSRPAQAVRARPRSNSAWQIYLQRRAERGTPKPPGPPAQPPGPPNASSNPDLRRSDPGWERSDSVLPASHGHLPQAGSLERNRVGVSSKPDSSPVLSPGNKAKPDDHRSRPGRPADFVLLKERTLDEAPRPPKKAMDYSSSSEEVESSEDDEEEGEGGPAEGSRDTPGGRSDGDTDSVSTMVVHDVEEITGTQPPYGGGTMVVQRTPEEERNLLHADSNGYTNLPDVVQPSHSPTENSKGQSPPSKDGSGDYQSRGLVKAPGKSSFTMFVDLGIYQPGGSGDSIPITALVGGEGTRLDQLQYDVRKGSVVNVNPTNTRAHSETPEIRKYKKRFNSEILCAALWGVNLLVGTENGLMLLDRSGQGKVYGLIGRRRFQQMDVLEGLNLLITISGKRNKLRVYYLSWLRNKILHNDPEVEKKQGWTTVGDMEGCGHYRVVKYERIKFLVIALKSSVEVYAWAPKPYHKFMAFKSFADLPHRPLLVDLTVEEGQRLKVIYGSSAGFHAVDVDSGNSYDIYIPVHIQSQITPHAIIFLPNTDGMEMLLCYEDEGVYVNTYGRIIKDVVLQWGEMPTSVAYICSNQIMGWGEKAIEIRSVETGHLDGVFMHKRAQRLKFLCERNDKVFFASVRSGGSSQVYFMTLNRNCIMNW
- assay: radiometric filter-binding kinase assay, Kinase HotSpot
- setup-conditions: compound 0.5 µM; ATP 10 µM
property-measured: residual activity (%)
Quick note: give the figure in %, leave out the unit.

mol=c1ccc(-c2cnc(Nc3ccc(OCCN4CCCC4)cc3)s2)cc1 unit_descriptor=% value_observed=38.7

Enter reported residual activity observed with MINK1 (human) (UniProt Q8N4C8) for N#CCCc1ccc2c(c1)-c1[nH]c3ccc([N+](=O)[O-])cc3c1CC(=O)N2
29.9

Enter reported residual activity observed with MINK1 (human) (UniProt Q8N4C8) for COc1cc2c(Nc3ccc(Br)cc3F)ncnc2cc1OCC1CCN(C)CC1
81.5

Enter reported residual activity observed with MINK1 (human) (UniProt Q8N4C8) for CCCCc1c(-c2ccc(O)cc2)[nH]c2nccnc12
82

Enter reported residual activity observed with MINK1 (human) (UniProt Q8N4C8) for N#Cc1c(NC(=O)c2cccc3ccccc23)sc2c1CCCC2
95.2

Enter reported residual activity observed with MINK1 (human) (UniProt Q8N4C8) for COc1cc2c(cc1OC)-c1[nH]nc(Nc3cccc(F)c3)c1C2
83.6

Enter reported residual activity observed with MINK1 (human) (UniProt Q8N4C8) for O=c1c2ccccc2[nH]c(=S)n1CCN1CCC(=C(c2ccc(F)cc2)c2ccc(F)cc2)CC1
94.4
